Target: DHFR in CCRF-CEM human leukemia cells (Homo sapiens)
Construct: endogenous in cells
Sequence (P00374 whole entry): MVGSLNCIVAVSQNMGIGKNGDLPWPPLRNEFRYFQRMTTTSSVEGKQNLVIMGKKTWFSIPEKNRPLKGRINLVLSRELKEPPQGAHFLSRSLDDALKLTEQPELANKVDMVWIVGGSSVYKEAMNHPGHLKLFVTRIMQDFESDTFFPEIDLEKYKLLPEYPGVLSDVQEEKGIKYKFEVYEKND
Assay: DHFR enzyme inhibition assay
Details: DHFR from CCRF-CEM cells, pre-incubation with NADPH 3 minutes at 37° C.
Structures can show the parent of a compound that is named as a salt.
PARAMETER: IC50

Guide cases for IC50, answers given:
INSERT INTO results (compound, target_desc, readout_value) VALUES
  ('C=C(CC(NC(=O)c1ccc(CCc2c[nH]c3nc(N)nc(N)c23)cc1)C(=O)O)C(=O)O (racemic) [CHL-003]', 'DHFR in CCRF-CEM human leukemia cells (Homo sapiens)', '12.5 nM'),
  ('C=C(C[C@H](NC(=O)c1ccc(CCc2c[nH]c3nc(N)nc(N)c23)cc1)C(=O)O)C(=O)O [CHL1007, disodium salt]', 'DHFR in CCRF-CEM human leukemia cells (Homo sapiens)', '5.2 nM');

Now for the compound whose IC50 we want.
Problem: So what does the record say about IC50 for C=C(CC(NC(=O)c1ccc(CCc2ccc3nc(N)nc(N)c3c2)cc1)C(=O)O)C(=O)O (stereo not drawn) [Mobiltrex, reference compound] ?
Solution: 1.1 nM

---

Molecular target: GARFT (Homo sapiens, UniProt P22102)
Sequence (P22102 1-1010): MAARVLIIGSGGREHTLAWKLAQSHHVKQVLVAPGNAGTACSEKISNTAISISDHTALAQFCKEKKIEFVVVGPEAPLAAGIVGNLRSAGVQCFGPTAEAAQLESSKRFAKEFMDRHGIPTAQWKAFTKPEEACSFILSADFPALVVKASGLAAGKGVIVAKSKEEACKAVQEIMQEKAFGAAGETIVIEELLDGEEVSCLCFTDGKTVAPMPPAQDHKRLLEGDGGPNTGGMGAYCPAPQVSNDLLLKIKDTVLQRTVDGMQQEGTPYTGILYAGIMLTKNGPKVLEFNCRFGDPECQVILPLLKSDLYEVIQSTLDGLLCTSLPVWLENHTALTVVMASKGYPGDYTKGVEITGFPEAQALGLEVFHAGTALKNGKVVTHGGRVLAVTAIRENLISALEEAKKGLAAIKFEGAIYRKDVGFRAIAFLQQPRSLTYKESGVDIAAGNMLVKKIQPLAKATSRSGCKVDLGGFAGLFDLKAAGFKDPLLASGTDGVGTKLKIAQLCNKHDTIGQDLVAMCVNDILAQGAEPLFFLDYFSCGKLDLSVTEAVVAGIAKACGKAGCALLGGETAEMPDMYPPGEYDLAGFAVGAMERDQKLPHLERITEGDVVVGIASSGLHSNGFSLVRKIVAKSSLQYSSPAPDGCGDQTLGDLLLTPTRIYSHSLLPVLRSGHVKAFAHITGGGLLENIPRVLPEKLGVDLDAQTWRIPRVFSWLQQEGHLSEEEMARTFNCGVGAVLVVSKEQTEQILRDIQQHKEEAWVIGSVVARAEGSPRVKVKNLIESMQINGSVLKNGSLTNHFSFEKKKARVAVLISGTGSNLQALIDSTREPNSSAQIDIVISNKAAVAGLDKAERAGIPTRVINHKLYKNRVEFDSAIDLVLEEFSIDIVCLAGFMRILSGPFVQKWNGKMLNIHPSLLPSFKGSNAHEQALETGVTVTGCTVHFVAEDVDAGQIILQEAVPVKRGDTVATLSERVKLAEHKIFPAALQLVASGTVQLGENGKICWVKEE
PARAMETER: IC50

Problem: Report IC50 for C=C(CC(NC(=O)c1ccc(CCc2c[nH]c3nc(N)nc(N)c23)cc1)C(=O)O)C(=O)O (racemic) tested on GARFT (Homo sapiens, UniProt P22102).
Solution: > 50 µM

---

Target: TS in CCRF-CEM human T-lymphoblastic leukemia cells (Homo sapiens)
Construct: endogenous in cells
Sequence (P04818 whole entry): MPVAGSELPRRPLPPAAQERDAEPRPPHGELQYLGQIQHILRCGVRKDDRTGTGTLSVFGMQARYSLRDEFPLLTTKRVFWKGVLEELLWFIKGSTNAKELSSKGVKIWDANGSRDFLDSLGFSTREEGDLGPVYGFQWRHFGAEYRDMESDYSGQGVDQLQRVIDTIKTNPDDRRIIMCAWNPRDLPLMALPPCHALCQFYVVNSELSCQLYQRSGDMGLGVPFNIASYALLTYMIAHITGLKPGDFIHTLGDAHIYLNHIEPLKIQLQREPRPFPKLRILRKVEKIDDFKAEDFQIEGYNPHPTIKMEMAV
Assay: TS enzyme inhibition assay
Conditions: TS from CCRF-CEM cells, up to five graded concentrations; read-out: IC50 against TS
PARAMETER: pIC50
Notebook: values listed as pIC50 are -log10 of the concentration (mol/L).

Problem: pIC50 lookup needed for C=C(CC(NC(=O)c1ccc(CCc2ccc3nc(N)nc(N)c3c2)cc1)C(=O)O)C(=O)O (centres unmarked) [Mobiltrex, reference compound] , thanks.
Solution: 5.10
